Numbers sourced from paper PMC3909687.

Molecular target: CC1736 (Caulobacter vibrioides, UniProt Q9A7I7)
Sequence (Q9A7I7 1-148): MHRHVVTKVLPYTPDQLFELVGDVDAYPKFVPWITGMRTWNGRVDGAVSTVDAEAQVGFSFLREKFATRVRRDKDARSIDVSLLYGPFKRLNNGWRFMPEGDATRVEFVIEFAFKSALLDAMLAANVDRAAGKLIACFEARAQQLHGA
Measured metric: pKd
Keep it numeric: pKd is minus log10 of the concentration in mol/L.

Given the entry COC1=CC(=O)C(C)=C(C/C=C(\C)CC/C=C(\C)CCC=C(C)C)C1=O , what pKd was observed with CC1736 (Caulobacter vibrioides, UniProt Q9A7I7)?
3.85

What do you have for COC1=C(OC)C(=O)C(C/C=C(\C)CC/C=C(\C)CCC=C(C)C)=C(C)C1=O ?
4.46

What do you have for COC1=C(OC)C(=O)C(C/C=C(\C)CCC=C(C)C)=C(C)C1=O ?
4.74
